# assay_info: small-molecule binders of probe aLefty1, primary screen, biochemical, small-molecule microarray, 635/667 nm fluorescence (AID 1153);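 also: score merges spot fluorescence with signal-to-noise ratio from the scanned slide images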
# test_settings: higher = more signal
Label fulfilled when composite z-score >= 0.05; otherwise not fulfilled.

Reported composite z-score at or above 0.05? CC(=O)n1cc(C(O)C2C=CC3C(=O)N(c4ccccc4)C(=O)C3N2Nc2ccc(C(C)C)cc2)c2ccccc21 (stereo not given)
fulfilled

Is the recorded value of composite z-score equal to or greater than 0.05 for this compound? "Cc1cccc([C@H]2C[C@H]3C(I)=C[C@@H]2C(=O)[C@]32CO2)c1"
not fulfilled

Does composite z-score meet or surpass 0.05 for "CCOC(=O)C[C@H]1[C@H](OC(=O)c2ccccc2-c2ccccc2)[C@@H](NC(=O)c2ccc3ccccc3n2)c2cc(OCCCO)ccc2N1C(=O)c1ccccc1" ?
not fulfilled

Hi team, for "COCCOC(=O)N1C(=O)[C@@]2(c3cc(C#CCNC(N)=O)ccc31)[C@H](c1ccc(OCCO)cc1)N1[C@H](c3ccccc3)[C@H](c3ccccc3)OC(=O)[C@H]1[C@@H]2C(N)=O" , is the recorded composite z-score at or above 0.05?
not fulfilled

Kindly determine if composite z-score recorded for "CC(=O)NCCCC[C@@H]1NC(=O)[C@H]2C[C@@H](C(=O)NCCCCCNC(=O)CS)[C@@H](c3cccc(OCCO)c3)N2C1=O" is above or exactly 0.05.
not fulfilled

Would you say CCCCCCCCCCC(O)C1C=CC2C(=O)N(c3ccccc3)C(=O)C2N1Nc1ccccc1F (stereo not given) shows composite z-score at minimum 0.05?
fulfilled

Tell me whether composite z-score is at least 0.05 here: O=C(NCC(O)CO)[C@@]1(CCS(=O)(=O)c2ccccc2)COC(c2ccc(OCCCO)cc2)=N1 (stereo not given in full)
fulfilled

Decide: is the reported value of composite z-score for "CCOC(=O)C1=C[C@@H](C(C)(C)C)N(S(=O)(=O)c2ccc(C)cc2)[C@H]1c1ccc(C)cc1" equal to or greater than 0.05?
fulfilled

Confirm if composite z-score reported for the compound COc1ccc(C(O)C2C=CC3C(=O)N(c4ccccc4)C(=O)C3N2Nc2ccc(C(C)C)cc2)c2ccccc12 (stereo not given) is 0.05 or above.
fulfilled

Hi team, for CN1C=C(C(=O)OCCS(C)(=O)=O)C(C(=O)OCCS(C)(=O)=O)=CC(c2ccc(CO)cc2)=CC1c1cccs1 (stereo not given) , is the recorded composite z-score at or above 0.05?
fulfilled

Please check the record "CC(=O)NCCCC[C@@H]1NC(=O)[C@@H]2C[C@H](C(=O)NCCCCCCN)[C@H](c3cccc(OCCO)c3)N2C1=O" and state if its composite z-score is at or above 0.05.
not fulfilled

Does the reported composite z-score for "COc1ccc([Si](C)(C)[C@@H]2[C@@H](CCn3cc([C@H](O)c4ccccc4)nn3)O[C@]3(C(=O)N(Cc4cccc(N5C(=O)c6cccc7cccc5c67)c4)c4ccccc43)[C@H]2C)cc1" fall at or above the 0.05 mark?
not fulfilled

Item "CCCCC(=O)N(CCN1CCOCC1)[C@@H]1CC(C(=O)NCCO)=C[C@H](Oc2c(I)cc(CO)cc2OC)[C@H]1O" with composite z-score of 0.05 or above?
not fulfilled

Does the compound COc1cc(NN2C(C(O)C3CCCCC3)C=CC3C(=O)N(c4ccccc4)C(=O)C32)cc(OC)c1OC (stereo not given) have recorded composite z-score that is 0.05 or more?
not fulfilled

composite z-score >= 0.05 for "C#C[C@@H](CC)O[Si](C#CCCCC#N)(C(C)C)C(C)C" ?
not fulfilled

Is it the case that "COC(=O)[C@@]1(Cc2ccccc2)[C@H]2c3cc(C(=O)N4CCCC4)n(CCSCCO)c3C[C@H]2CN1C(=O)c1ccccc1" has composite z-score reaching or exceeding 0.05?
fulfilled

Tell me whether composite z-score is at least 0.05 here: "COc1ccc([Si](C)(C)[C@H]2[C@H](CC(=O)N3Cc4ccccc4C[C@H]3CO)O[C@@]3(C(=O)N(Cc4ccc(N5C(=O)c6cccc7cccc5c67)cc4)c4ccccc43)[C@@H]2C)cc1"
fulfilled

Kindly determine if composite z-score recorded for "COC(=O)[C@@]1(Cc2ccc(F)cc2)[C@H]2c3cc(C(=O)N(C)C)n(Cc4c(CO)[nH]cc(C)c4=O)c3C[C@H]2CN1C(=O)c1ccccc1" is above or exactly 0.05.
fulfilled

Would you say CCOC(=O)C1=CCC(c2ccccc2)N(S(=O)(=O)c2ccc([N+](=O)[O-])cc2)C1 (stereo not given) shows composite z-score at minimum 0.05?
not fulfilled

Threshold query (composite z-score >= 0.05) on "C=C(C(=O)CC[C@@H](OC(=O)c1ccccc1-c1ccccc1C(=O)O)c1ccccc1OCCO)C(C)C"
fulfilled

Dear colleague, could you confirm whether "CN(C)C(=O)[C@@]1(Cc2ccccc2N=[N+]=[N-])N=C(c2ccc(OCCCO)cc2)O[C@H]1c1ccccc1" has composite z-score at or above 0.05?
fulfilled

Assess whether reported composite z-score for "CCCCC=C[C@@H](NC(=O)c1ccccc1)c1ccccc1" sits at 0.05 or higher.
fulfilled

Quick check, composite z-score >= 0.05? "CCCC=C(CCC)[C@@H](NS(=O)(=O)c1cccc2cccnc12)c1ccc(-c2ccccc2)cc1"
fulfilled

Confirm if composite z-score reported for the compound "CN1C(=O)[C@@]2(Cc3ccccc3)N=C(c3ccc(OCCCO)cc3)O[C@H]2c2ccccc21" is 0.05 or above.
fulfilled

Kindly determine if composite z-score recorded for "C=CCNC(=O)[C@@H]1[C@H]2C(=O)O[C@H](c3ccccc3)[C@H](c3ccccc3)N2[C@H](c2ccc(OCCO)cc2)[C@@]12C(=O)N(C(=O)OCCOC)c1ccc(C#CCCO)cc12" is above or exactly 0.05.
fulfilled

Check the entry "CCc1cccc(NC(=O)O[C@H]2[C@H](OC(=O)Nc3ccccc3)[C@H](OC(=O)Nc3ccccc3)[C@@H](OC)O[C@@H]2CO)c1" : does composite z-score equal or exceed 0.05?
fulfilled

Textbook exercise: given the entry "C=C(/C(=C/C[C@@H](OC(=O)c1ccncc1)c1cccc(OCCO)c1)c1cnc2ccccc2c1)C(C)C" , state whether its composite z-score is greater than or equal to 0.05.
fulfilled

Quick check: does CC1CC/C=C\[C@H]2OC34C=CCN(C(C)(C)C)C(=O)[C@H]3N(C(CO)C(C)C)C(=O)[C@@H]4C2C(=O)O1 (stereo not given in full) have composite z-score greater than or equal to 0.05?
not fulfilled

Decide: composite z-score of "CCOC(=O)C=Cc1cc(F)ccc1O" >= 0.05?
not fulfilled

Determine whether this compound has composite z-score no lower than 0.05: CC(CO)N1C(=O)[C@@H]2[C@H]3C(=O)OCC=C[C@H]3OC23C=CCN(c2ccc(Cl)cc2)C(=O)[C@@H]13 (stereo not given in full)
not fulfilled

----------
Hi there, I'd appreciate the recorded composite z-score for every entry that follows.
# assay_info: small-molecule microarray binders of probe aNog, primary screen, biochemical, biotinylated probe, 635/667 nm fluorescence (AID 1115);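 also: probe is biotinylated aNog protein used at 0.15 µg/mL for 1 h at 4 C; z-score combines 667 nm fluorescence of each spot with its signal to noise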
# test_settings: higher = more signal
Please reply with the value in numeric form only.

Indicate its recorded composite z-score; the compound in question is "COc1ccc([Si](C)(C)[C@@H]2[C@@H](CC(=O)N3Cc4ccccc4C[C@H]3CO)O[C@]3(C(=O)N(Cc4ccc(N5CCC5=O)cc4)c4ccccc43)[C@H]2C)cc1"
-0.388

Name the recorded composite z-score of the item "CC(C)(C)OC(=O)CC[C@]12N=C(c3ccc(OCCCO)cc3)O[C@H]1c1ccccc1N(Cc1ccccc1)C2=O" in your answer.
0.963

For the compound COc1cc2c(cc1O)C(c1cccs1)N(Cc1sc3ccccc3c1Cl)CC2 (centres undefined) , give its reported composite z-score.
0.593

Please look at this compound and report its composite z-score: "CC(C)CNC(=O)[C@@H]1c2ccccc2C(=O)N(C2CCCCC2)[C@H]1c1ccc(CO)cc1"
0.313

----------
# study_target: Carbonic anhydrase 2 (Homo sapiens)
# assay_info: CAII small-molecule binders, profiling panel, biochemical, small-molecule microarray, Alexa647-labelled CAII (AID 1122)
# test_settings: CAII-A647 binding fluorescence, higher = more signal
# composite z-score >= 0.8 gives Criterion met, anything below gives Criterion not met

# check: composite z-score of "O=C(O)[C@@H]1C[C@@H]2C(=O)N3CCC[C@H]3C(=O)N2[C@@H]1c1cccc(OCCO)c1" is greater than or equal to 0.8
Criterion met

Is the recorded value of composite z-score equal to or greater than 0.8 for this compound? "O=C1N[C@@H](Cc2ccccc2)C(=O)N2[C@@H]1C[C@@H](C(=O)O)[C@H]2c1ccc(O)cc1"
Criterion not met

Is it the case that "CC(C)CNC(=O)[C@@]1(c2ccc([N+](=O)[O-])cc2)CC(=O)N(C2CCCCC2)[C@@H]1c1ccc(CO)cc1" has composite z-score reaching or exceeding 0.8?
Criterion not met

Check if composite z-score >= 0.8 (inclusive). Item: CC(=O)N1CC(C(O)C2C=CC3C(=O)NC(=O)C3N2Nc2ccc(Cl)cc2Cl)c2ccccc21 (stereo unspecified)
Criterion not met

Kindly determine if composite z-score recorded for CC(CO)N1C(=O)[C@@H]2[C@H]3C(=O)OCC=C[C@H]3OC23C=CCN(c2ccc(Cl)cc2)C(=O)[C@@H]13 (stereo partly specified) is above or exactly 0.8.
Criterion met

Textbook exercise: given the entry "CCCCNC(=O)c1ccc(C#C[Si](C(C)C)(C(C)C)C(C)C)c(OC(C)=O)c1" , state whether its composite z-score is greater than or equal to 0.8.
Criterion met

Threshold query (composite z-score >= 0.8) on "C=C(COC)C(=O)CC[C@H](OC(=O)c1cccnc1)c1ccc(CO)o1"
Criterion not met

Is composite z-score at least 0.8? Consider "C=C(/C(=C/C[C@H](OC(=O)c1ccncc1)c1ccccc1OCCO)c1cnc2ccccc2c1)C(C)C"
Criterion not met

Check if composite z-score >= 0.8 (inclusive). Item: "CN(C)C(=O)[C@@]1(Cc2ccccc2N=[N+]=[N-])N=C(c2ccc(OCCCO)cc2)O[C@H]1c1ccccc1"
Criterion not met

Assess whether reported composite z-score for CC(C)N1CC=CC23O[C@@H]4/C=C\CCCOC(=O)C4[C@H]2C(=O)N(CCCCCCO)[C@@H]3C1=O (stereo partly specified) sits at 0.8 or higher.
Criterion met

Say whether "C=C(/C(=C/C[C@@H](OC(=O)c1ccncc1)c1cccc(OCCO)c1)c1cnc2ccccc2c1)C(C)C" shows composite z-score of 0.8 or more.
Criterion met

Check this compound for composite z-score at or above 0.8: "O=C1O[C@H](c2ccccc2)[C@H](c2ccccc2)N2[C@H]1[C@@H](C(=O)Nc1nc3ccccc3s1)[C@]1(C(=O)Nc3ccc(C#CC4=CCCCC4)cc31)[C@H]2c1ccc(O)cc1"
Criterion not met

Reported composite z-score reaches at least 0.8 for "CCOC(=O)C[C@H]1[C@H](OC(=O)c2ccc(-c3ccccc3)cc2)[C@@H](NC(=O)Cc2ccc(OC)cc2)c2cc(OCCCO)ccc2N1C(=O)Cc1ccc(OC)cc1" ?
Criterion not met

Could you please find out whether COc1cc(NN2C(C(O)c3ccc(I)cc3)C=CC3C(=O)N(c4ccccc4)C(=O)C32)cc(OC)c1OC (stereo unspecified) has composite z-score that meets 0.8 or exceeds it?
Criterion not met

Does the compound "CC(C)(C)OC(=O)CC[C@]1(C(=O)N2CCCCC2)COC(c2ccc(OCCCO)cc2)=N1" have recorded composite z-score that is 0.8 or more?
Criterion met

In plain terms: is recorded composite z-score at least 0.8 for "CC(=O)NCCCC[C@@H]1NC(=O)[C@H]2C[C@@H](C(=O)NCCCCCNC(=O)CS)[C@@H](c3cccc(OCCO)c3)N2C1=O" ?
Criterion not met

Values compiled from PubChem BioAssay.
